# targetSystem: huCTLA4 (Homo sapiens, UniProt P16410)
# Sequence (P16410 36-223): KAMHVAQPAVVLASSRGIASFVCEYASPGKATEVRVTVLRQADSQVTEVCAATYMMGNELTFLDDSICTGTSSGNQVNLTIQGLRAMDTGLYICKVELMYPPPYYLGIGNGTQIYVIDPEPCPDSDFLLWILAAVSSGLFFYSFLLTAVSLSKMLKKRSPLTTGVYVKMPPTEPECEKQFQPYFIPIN
# assayNotes: Flow binding to CHO cells stably expressing CTLA4
# Parameters: huCTLA4 and huPD-L1, full-length mammalian surface expression constructs were generated; expressed in transfected cells; host or cells: CHO cells, lentiviral transduction, sorted to >98% purity
# conditionParameters: Table E19; CHO cells stably expressing CTLA4; 33.3 nM
propertyMeasured: CTLA4 MFI at 33.3 nM
# respond with the number and nothing more

Problem: Param item = M47L (protein) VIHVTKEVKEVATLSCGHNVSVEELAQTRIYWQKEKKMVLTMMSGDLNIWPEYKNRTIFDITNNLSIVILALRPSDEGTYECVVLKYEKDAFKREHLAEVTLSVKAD ; retrieve measured CTLA4 MFI at 33.3 nM.
Result: 30774

Problem: Param item = E35D/D46V/M47V/N48K/V68M (protein) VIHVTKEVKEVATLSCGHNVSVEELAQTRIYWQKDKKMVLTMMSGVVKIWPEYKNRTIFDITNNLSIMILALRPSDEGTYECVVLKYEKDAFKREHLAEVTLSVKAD ; retrieve measured CTLA4 MFI at 33.3 nM.
Result: 23880

Problem: Param item = V68M (protein) VIHVTKEVKEVATLSCGHNVSVEELAQTRIYWQKEKKMVLTMMSGDMNIWPEYKNRTIFDITNNLSIMILALRPSDEGTYECVVLKYEKDAFKREHLAEVTLSVKAD ; retrieve measured CTLA4 MFI at 33.3 nM.
Result: 568
